Test system: DU-145 prostate
Assay: NCI-60 one-dose screen, 48 h (100 = growth as untreated, 0 = no growth, -100 = all killed)
Conditions: 10 µM unless noted
This is part of a sample that, as a whole, favours compounds with a hit. Of some 83,000 tested, about 20% had one in any assay. The source made the active and inactive calls. Rule for the calls: active = growth percent below 10; inactive = the rest.
property: growth

Exercise: Provide growth value for the following molecule: N#Cc1c(-c2cccs2)c(C#N)c(=O)n(Cc2nc3ccccc3[nH]2)c1N
Key: 111% (inactive)

Exercise: Identify growth associated with the molecule CCOC(=O)c1cnc2c(-c3ccc(Cl)c(Cl)c3)cnn2c1
Key: 104% (inactive)

Exercise: Write down growth measured for item C#C[C@]1(O)CC[C@H]2[C@@H]3CC=C4c5sc(Nc6ccc(C)cn6)nc5CC[C@]4(C)[C@H]3CC[C@@]21C
Key: 27.9% (inactive)

Exercise: Please indicate growth recorded for CCOC(=O)C(=O)Nc1ccc2c(ccn2C(=O)c2cccc(F)c2)c1
Key: 67.7% (inactive)

Exercise: Give recorded growth. CCOC(=O)c1c(NC(=O)c2cccc(C(F)(F)F)c2)sc2c3c(ccc12)OCN(C)C3
Key: -16.8% (active)

Exercise: State its growth: CSc1ccc(/C(=N/N=C(N)N)c2ccc(F)cc2)cc1
Key: 20.9% (inactive)

Exercise: # return recorded growth for input O=C(CCl)Nc1ccc(NC(=O)c2cc(Cl)ccc2O)c(Cl)c1
Key: 95.2% (inactive)

Exercise: # return recorded growth for entry O=[N+]([O-])c1ccc(NC(=S)NNC(=S)Nc2ccc(Br)cc2)cc1
Key: 104% (inactive)

Exercise: Answer with reported growth of NS(=O)(=O)c1ccc(Nc2nc(Nc3ccccc3)nc(N3N=C(c4ccc(Cl)cc4)CC3c3ccc(Cl)cc3)n2)cc1 (stereo not given)
Key: 50.4% (inactive)

Exercise: Supply growth value. Item: Cn1ncc2ncc(-c3ccc4ncc(C#N)c(N5CCc6cc(F)c(Cl)cc65)c4c3)cc21
Key: 30% (inactive)
